target: UniProt P28335; experiment: Displacement of [125I]DOI from human recombinant 5HT2C receptor expressed in HEK293 cells by scintillation counting
Sequence (P28335 whole entry): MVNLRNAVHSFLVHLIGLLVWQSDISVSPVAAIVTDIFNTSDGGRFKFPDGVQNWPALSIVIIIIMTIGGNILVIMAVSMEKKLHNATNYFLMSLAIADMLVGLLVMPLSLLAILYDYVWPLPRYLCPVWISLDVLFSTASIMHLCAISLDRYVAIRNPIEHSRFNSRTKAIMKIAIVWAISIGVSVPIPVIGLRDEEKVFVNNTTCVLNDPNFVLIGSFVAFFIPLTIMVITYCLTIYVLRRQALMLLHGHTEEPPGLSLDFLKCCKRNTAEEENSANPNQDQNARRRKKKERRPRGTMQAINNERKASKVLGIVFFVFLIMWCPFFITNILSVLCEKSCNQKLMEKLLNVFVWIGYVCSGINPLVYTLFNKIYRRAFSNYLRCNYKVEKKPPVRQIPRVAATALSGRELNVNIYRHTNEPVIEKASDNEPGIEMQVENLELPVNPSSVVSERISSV
pKi: −log10 of the molar value.
measurement.name: pKi

[P] COc1ccc(NC(=O)Nc2cccc(F)c2)cc1-c1c(Br)cnn1C
[Q] COc1ccc(NC(=O)Nc2cccc(C#N)c2)cc1-c1c(Br)cnn1C
[R] COc1ccc(NC(=O)Nc2ccc(F)cc2F)cc1-c1c(Cl)cnn1C
I'd appreciate it if you sorted the entries above by their pKi, lowest to highest. Ranked list of labels, please, in the requested order. R, Q, P
(R: 6.50, Q: 7.20, P: 7.40)
